target: Bone morphogenetic protein 1 (Homo sapiens); experiment: Inhibitory activity against procollagen C-Proteinase (PCP).
Sequence (P13497 whole entry): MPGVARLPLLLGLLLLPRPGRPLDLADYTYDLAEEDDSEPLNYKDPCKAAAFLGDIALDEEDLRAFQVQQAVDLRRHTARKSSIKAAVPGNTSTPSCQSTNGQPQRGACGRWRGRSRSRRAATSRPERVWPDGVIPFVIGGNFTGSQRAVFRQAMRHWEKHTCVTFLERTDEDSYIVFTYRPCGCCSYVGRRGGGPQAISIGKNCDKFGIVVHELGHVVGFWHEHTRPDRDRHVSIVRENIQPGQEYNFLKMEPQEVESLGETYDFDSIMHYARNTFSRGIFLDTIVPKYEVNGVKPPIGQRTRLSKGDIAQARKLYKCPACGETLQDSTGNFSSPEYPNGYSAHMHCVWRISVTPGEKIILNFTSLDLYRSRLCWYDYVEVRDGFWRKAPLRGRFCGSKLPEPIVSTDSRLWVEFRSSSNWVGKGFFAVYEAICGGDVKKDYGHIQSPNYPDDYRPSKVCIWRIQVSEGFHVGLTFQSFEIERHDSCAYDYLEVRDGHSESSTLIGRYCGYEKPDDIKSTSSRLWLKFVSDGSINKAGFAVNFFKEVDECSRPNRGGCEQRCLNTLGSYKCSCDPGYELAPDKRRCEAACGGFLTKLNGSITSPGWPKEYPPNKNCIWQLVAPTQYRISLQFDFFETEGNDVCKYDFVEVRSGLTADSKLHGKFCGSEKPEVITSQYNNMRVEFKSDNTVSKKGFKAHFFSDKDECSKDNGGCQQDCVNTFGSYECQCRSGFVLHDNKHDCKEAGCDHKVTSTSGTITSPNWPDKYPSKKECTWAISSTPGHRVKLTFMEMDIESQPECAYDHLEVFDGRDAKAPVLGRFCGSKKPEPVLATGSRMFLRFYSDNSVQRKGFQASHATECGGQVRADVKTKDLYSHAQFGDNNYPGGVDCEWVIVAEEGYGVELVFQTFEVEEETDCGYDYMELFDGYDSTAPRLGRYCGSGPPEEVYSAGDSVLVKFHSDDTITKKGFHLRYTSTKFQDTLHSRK
Attribute Measured: IC50 (µM)
Value expressed in µM; do not type the unit.

## Input What value of IC50 has been recorded for this entry: C[C@@H](NC(=O)NCCC[C@@H](NS(=O)(=O)c1ccc(S(=O)(=O)c2cccs2)cc1)C(=O)NO)c1ccccc1
## Output 5

## Input Fill blank: measured IC50 of the compound CCCNC(=O)NCCC[C@H](C(=O)NO)N(Cc1ccc2c(c1)OCO2)S(=O)(=O)c1ccc(OC)cc1 is ____.
## Output 0.097

## Input Consider the compound COc1ccc(S(=O)(=O)N[C@@H](CCCNC(=O)N[C@H](C)c2ccccc2)C(=O)NO)cc1 and give its measured IC50.
## Output 2.1

## Input Request the reported IC50 associated with COc1cc(C)c(S(=O)(=O)N[C@H](CCCNC(=O)N[C@H](C)c2ccccc2)C(=O)NO)c(C)c1
## Output 23

The values you see were collected from ChEMBL document CHEMBL1133899.
